The origin of these recorded values is ChEMBL document CHEMBL3997786.

# study_target: [Pyruvate dehydrogenase (acetyl-transferring)] kinase isozyme 2, mitochondrial (Homo sapiens)
# assay_details: Inhibition of N-terminal His6-SUMO tagged recombinant human PDK2 using [32P]-gamma-ATP assessed as decrease in incorporation of radioactivity into E1 protein incubated for 2 mins
pIC50: −log10 of the molar value.
Parameter pIC50: see the listing below.
quantity_kind: pIC50

NC(=O)C[C@H](N)C(=O)N1CC[C@H](Nc2ccc3c(c2)CN(S(=O)(=O)c2ccc(O)cc2O)C3)C1	6.81
C[C@H](O)[C@H](N)C(=O)N1CCC(Nc2ccc3c(c2)CN(S(=O)(=O)c2ccc(O)cc2O)C3)CC1	7.04
NC(=O)C[C@H](N)C(=O)NCCNc1ccc2c(c1)CN(S(=O)(=O)c1ccc(O)cc1O)C2	6.45
O=S(=O)(c1ccc(O)cc1O)N1Cc2ccc(NC3CCN(Cc4ccccc4)CC3)cc2C1	6.38
N[C@@H](CO)C(=O)N1CCC(Nc2ccc3c(c2)CN(S(=O)(=O)c2ccc(O)cc2O)C3)CC1	7.17
NC(=O)C[C@H](N)C(=O)N1CCC(Nc2ccc3c(c2)CN(S(=O)(=O)c2ccc(O)cc2O)C3)CC1	7.24
O=C(O)c1ccccc1C(=O)N1CCC(Nc2ccc3c(c2)CN(S(=O)(=O)c2ccc(O)cc2O)C3)CC1	6.25
O=S(=O)(c1ccc(O)cc1O)N1Cc2ccc(NC3CCNCC3)cc2C1	6.71

###

# study_target: [Pyruvate dehydrogenase (acetyl-transferring)] kinase isozyme 2, mitochondrial (Homo sapiens)
# assay_details: Binding affinity to N-terminal His6-SUMO tagged recombinant human PDK2 by isothermal titration calorimetry
Parameter Kd: see the listing below.
quantity_kind: Kd (µM)

O=S(=O)(c1ccc(O)cc1O)N1Cc2cc(O)cc(O)c2C1	0.156
O=S(=O)(c1ccc(O)cc1O)N1Cc2ccc(NC3CCNCC3)cc2C1	0.11
NC(=O)C[C@H](N)C(=O)N1CCC(Nc2ccc3c(c2)CN(S(=O)(=O)c2ccc(O)cc2O)C3)CC1	0.022

###

# study_target: [Pyruvate dehydrogenase (acetyl-transferring)] kinase isozyme 3, mitochondrial (Homo sapiens, UniProt Q15120)
# Sequence (Q15120 whole entry): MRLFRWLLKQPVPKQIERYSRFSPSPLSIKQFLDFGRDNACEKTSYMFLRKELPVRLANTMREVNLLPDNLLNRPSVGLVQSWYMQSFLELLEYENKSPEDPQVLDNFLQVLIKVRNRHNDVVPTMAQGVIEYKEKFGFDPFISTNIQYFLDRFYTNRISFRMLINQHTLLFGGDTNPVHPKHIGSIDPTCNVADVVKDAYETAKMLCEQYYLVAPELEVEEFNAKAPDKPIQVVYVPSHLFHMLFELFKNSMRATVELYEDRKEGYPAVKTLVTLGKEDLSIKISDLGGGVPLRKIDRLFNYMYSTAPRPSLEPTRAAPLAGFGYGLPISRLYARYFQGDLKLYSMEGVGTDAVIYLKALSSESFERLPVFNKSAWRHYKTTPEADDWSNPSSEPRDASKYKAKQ
# assay_details: Inhibition of recombinant human PDK3 in presence of E1 protein incubated for 10 mins by titration assay
pIC50: −log10 of the molar value.
quantity_kind: pIC50

NC(=O)C[C@H](N)C(=O)N1CCC(Nc2ccc3c(c2)CN(S(=O)(=O)c2ccc(O)cc2O)C3)CC1	4.34

###

# assay_details: Tmax in CD1 mouse plasma at 30 mg/kg, ip by LC-MS/MS analysis
# Assay type: ADME, organism-based
quantity_kind: Tmax (min)

NC(=O)C[C@H](N)C(=O)N1CCC(Nc2ccc3c(c2)CN(S(=O)(=O)c2ccc(O)cc2O)C3)CC1	10

###

# assay_details: Cmax in CD1 mouse muscle at 30 mg/kg, ip by LC-MS/MS analysis
# Format: ADME, organism-based, Muscle tissue
# Set-up: dose 30 mg/kg, route intraperitoneal
quantity_kind: Cmax (ng/g)

NC(=O)C[C@H](N)C(=O)N1CCC(Nc2ccc3c(c2)CN(S(=O)(=O)c2ccc(O)cc2O)C3)CC1	2420

###

# study_target: [Pyruvate dehydrogenase (acetyl-transferring)] kinase isozyme 3, mitochondrial (Homo sapiens, UniProt Q15120)
# assay_details: Inhibition of recombinant human PDK3 in presence of E1 protein and PDC core E2/E3BP incubated for 10 mins by titration assay
pIC50: −log10 of the molar value.
quantity_kind: pIC50

NC(=O)C[C@H](N)C(=O)N1CCC(Nc2ccc3c(c2)CN(S(=O)(=O)c2ccc(O)cc2O)C3)CC1	5.77
